// data source = PubChem BioAssay (NCI)

Test system: HS 578T breast
METHOD_NOTES: NCI tumour cell line growth inhibition, 48 h
MEASURED_ENDPOINT: TGI

[[record]]
molecule = "C=C1CC[C@H](O)C(C)(C)[C@@H]1CC/C(C)=C/CC/C=C(\\C)CC/C=C(\\C)CCC=C(C)C"
readout_value = "> 100 µM"

[[record]]
molecule = "COc1ccc(-c2nnc(COc3ccc(NC(=O)Nc4ccc(Cl)c(C(F)(F)F)c4)cc3F)o2)cc1"
readout_value = "18.1 µM"

[[record]]
molecule = "C=C(C)C1CCC2(C(=O)O)CCC3(C)C(CCC4C5(C)CCC(OC(=O)NCc6ccccc6)C(C)(C)C5CCC43C)C12 (stereo not drawn)"
readout_value = "> 100 µM"

[[record]]
molecule = "NC(CCC(=O)O)C(=O)N1CCN(c2nc(N3CCCC3)c3nc(Cl)c(NCc4ccccc4)nc3n2)CC1 (stereo not drawn)"
readout_value = "60.2 µM"

[[record]]
molecule = "N#Cc1c(Cl)c2cc([N+](=O)[O-])ccc2n2c1nc1ccccc12"
readout_value = "18 µM"

[[record]]
molecule = "CC1=CC(=O)N(n2c(Cc3ccccc3)n[nH]c2=O)C1=O"
readout_value = "> 100 µM"

[[record]]
molecule = "COc1cc2c3c(n(CCCCOC(=O)C(Cl)(Cl)Cl)c(=O)c2cc1OC)-c1cc2c(cc1C3=O)OCO2"
readout_value = "> 100 µM"

[[record]]
molecule = "COc1ccc(N2C(=O)C3ON(C(C(N)=O)c4ccccc4)C(c4cc5ccccc5c5ccccc45)C3C2=O)cc1 (stereo not drawn)"
readout_value = "> 50 µM"


###

Tested on: LOX IMVI melanoma
METHOD_NOTES: NCI tumour cell line growth inhibition, 48 h
List of TGI values.
MEASURED_ENDPOINT: TGI

[[record]]
molecule = "COC(=O)C(=Cc1cc(OC)c(OC)c(OC)c1-c1cc2c(cc1C(C)=O)OCO2)C(=O)OC"
readout_value = "79.4 µM"

[[record]]
molecule = "CC(C)(C)c1ccc(-c2nc3ccc(Cl)cc3c(=O)o2)cc1"
readout_value = "31 µM"

[[record]]
molecule = "N#CCc1ccc(C(C#N)/C(CCCC(=O)Nc2cccc([N+](=O)[O-])c2)=N/NC(N)=S)cc1 (stereo unspecified)"
readout_value = "> 100 µM"

[[record]]
molecule = "O=C1NC2OCC(O)C(O)C2O1 (stereo unspecified)"
readout_value = "> 100 µM"

[[record]]
molecule = "CNc1nc(N)c(N=O)c(Nc2ccc(Br)cc2)n1"
readout_value = "> 100 µM"

[[record]]
molecule = "CCCS(=O)(=O)/C(=C(\\c1ccc(Br)cc1)S(=O)(=O)CCC)c1ccc(Br)cc1"
readout_value = "> 10 µM"

[[record]]
molecule = "CCCCCN(CCCCC)CC(O)c1ccc(Cl)c2ccccc12 (stereo unspecified)"
readout_value = "16.4 µM"

[[record]]
molecule = "COc1ccc(-c2nnc(COc3ccc(NC(=O)Nc4ccc(Cl)c(C(F)(F)F)c4)cc3F)o2)cc1"
readout_value = "> 100 µM"

[[record]]
molecule = "CC(=O)O.[Au].c1ccc([PH+](c2ccccc2)c2ccccc2)cc1"
readout_value = "7.98 µM"

[[record]]
molecule = "CC(C)c1ccc(C(c2ccc(OCC(=O)O)cc2)c2ccc(C(C)C)cc(=O)c2O)c(O)c(=O)c1"
readout_value = "14.8 µM"

[[record]]
molecule = "CC(=O)N[C@@H](Cc1ccc(O)cn1)C(=O)NCc1cccc(Cl)c1"
readout_value = "> 100 µM"

[[record]]
molecule = "CCO/N=C(/N)c1ncn(Cc2ccccc2)c1NCC(OCC)OCC"
readout_value = "> 100 µM"

[[record]]
molecule = "COc1ccc(N2C(=O)C3ON(C(C(N)=O)c4ccccc4)C(c4cc5ccccc5c5ccccc45)C3C2=O)cc1 (stereo unspecified)"
readout_value = "> 50 µM"

[[record]]
molecule = "O=C1O/C(=C(/Br)c2ccc(Cl)c(Cl)c2)c2ccccc21"
readout_value = "> 10 µM"

[[record]]
molecule = "N#C/C(=C\\c1cc2ccccc2c2ccccc12)c1ccccc1"
readout_value = "> 100 µM"

[[record]]
molecule = "CC(C)c1cc2c(O)c(c1)Cc1cc(C(C)C)cc(c1O)Cc1cc(C(C)C)cc(c1O)Cc1cc(C(C)C)cc(c1O)C2"
readout_value = "> 100 µM"

[[record]]
molecule = "COc1cc(OC)cc(-c2nc3cc(F)ccc3s2)c1"
readout_value = "> 100 µM"

[[record]]
molecule = "CC(=NNC(=S)Nc1ccc(C)cc1)c1cccc(C(C)=NNC(=S)Nc2ccc(C)cc2)n1"
readout_value = "91.7 µM"

[[record]]
molecule = "Nc1ncn(C2CC(O)C(CO)O2)c(=O)n1 (stereo unspecified)"
readout_value = "> 375 µM"

[[record]]
molecule = "CCOP(=O)(CN1CCNCCNCC1)OCC"
readout_value = "> 100 µM"

[[record]]
molecule = "COC(=O)C1C(=O)C=CN([C@H](C)c2ccccc2)[C@@H]1Cc1ccc(OC)c(OCc2ccccc2)c1I (stereo partly specified)"
readout_value = "27.8 µM"

